Origin of values: paper PMC7253076

Provide the recorded Kp at 3 h for the entries that follow.
- Assay name: In vivo pharmacokinetics, IP injection or oral gavage
- Parameters: species or system mouse
- Particulars: male, B6SJLF1/J, mouse, brain and plasma, ip, 10 mg/kg
Numbers only.

OCCN1CCN(Cc2ccc(-c3cnc4[nH]cc(-c5cccc(Cl)c5)c4c3)cc2)CC1 [Prostetin/12k]: 3

// below: Kp at 3 h requested for another molecule
Enquiry: # get_value(readout='Kp at 3 h', item= CN1CCN(Cc2ccc(-c3cnc4[nH]cc(-c5ccc6[nH]ccc6c5)c4c3)cc2)CC1 [compound 1, reference compound] )
Return: 0.23

====

Provide the recorded Cmax for the entries that follow.
- Assay name: In vivo pharmacokinetics, IP injection or oral gavage
- Set-up: species or system mouse
- Particulars: male, B6SJLF1/J, mouse, plasma, ip, 10 mg/kg
Give bare numbers, in ng/mL.

CN1CCN(Cc2ccc(-c3cnc4[nH]cc(-c5ccc6[nH]ccc6c5)c4c3)cc2)CC1 [compound 1, reference compound]: 972

Enquiry: # get_value(readout='Cmax', item= OCCN1CCN(Cc2ccc(-c3cnc4[nH]cc(-c5cccc(Cl)c5)c4c3)cc2)CC1 [Prostetin/12k] )
Return: 454

====

- Tested target: MLK3 (Homo sapiens)
- Sequence (Q16584 whole entry): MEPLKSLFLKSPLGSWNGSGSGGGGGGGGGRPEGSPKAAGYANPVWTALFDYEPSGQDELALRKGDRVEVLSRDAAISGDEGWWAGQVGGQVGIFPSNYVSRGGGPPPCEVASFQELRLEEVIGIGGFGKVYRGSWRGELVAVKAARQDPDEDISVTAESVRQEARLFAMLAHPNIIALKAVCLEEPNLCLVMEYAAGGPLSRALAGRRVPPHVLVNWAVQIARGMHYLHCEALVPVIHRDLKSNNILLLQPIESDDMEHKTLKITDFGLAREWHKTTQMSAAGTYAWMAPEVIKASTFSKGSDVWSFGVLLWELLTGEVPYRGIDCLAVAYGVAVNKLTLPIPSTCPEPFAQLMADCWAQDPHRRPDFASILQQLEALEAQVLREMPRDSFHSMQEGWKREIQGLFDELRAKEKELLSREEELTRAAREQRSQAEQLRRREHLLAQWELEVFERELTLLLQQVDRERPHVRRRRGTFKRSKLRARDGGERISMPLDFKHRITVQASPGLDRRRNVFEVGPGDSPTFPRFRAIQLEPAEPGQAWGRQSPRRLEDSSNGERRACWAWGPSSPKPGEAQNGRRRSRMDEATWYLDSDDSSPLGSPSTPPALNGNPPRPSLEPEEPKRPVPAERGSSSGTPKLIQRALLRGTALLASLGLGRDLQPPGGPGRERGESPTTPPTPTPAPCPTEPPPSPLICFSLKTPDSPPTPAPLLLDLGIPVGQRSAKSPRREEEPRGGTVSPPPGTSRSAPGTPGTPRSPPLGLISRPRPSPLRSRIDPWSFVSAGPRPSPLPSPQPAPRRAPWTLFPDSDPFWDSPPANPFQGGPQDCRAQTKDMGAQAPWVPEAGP
Quantity name: IC50 (nM)
Numbers only, in nM.

Enquiry: # get_value(readout='IC50', item= CN1CCN(Cc2ccc(-c3cnc4[nH]cc(-c5ccc6[nH]ccc6c5)c4c3)cc2)CC1 [compound 1, reference compound] )
Return: 18.6

====

- Tested on: motor neurons differentiated from human induced pluripotent stem cells derived from a healthy patient
- Assay name: Motor neuron CPA survival assay, healthy-patient iPSC-derived motor neurons
- Type: cell-based
- Particulars: CPA-treated healthy human motor neurons, 72 h
Quantity name: rescue of CPA toxicity / neuroprotection

CN1CCN(Cc2ccc(-c3cnc4[nH]cc(-c5ccc6[nH]ccc6c5)c4c3)cc2)CC1 [compound 1, reference compound]: neuroprotective
Nc1ncc(C(=O)NC2CN(C(=O)C3CC3)C2)c2ccc(-c3cccc(F)c3)nc12: neuroprotective
Nc1ccc(-c2cnc(N)c(-c3ccc(Cl)cc3)c2)cn1: neuroprotective
